molecular target: Alpha-2A adrenergic receptor (Homo sapiens)

{"Molecule": "C1CNCCN1", "AC50": "> 30 µM"}
{"Molecule": "CC1(C)S[C@@H]2[C@H](NC(=O)[C@H](NC(=O)N3CCN(S(C)(=O)=O)C3=O)c3ccccc3)C(=O)N2[C@H]1C(=O)O", "AC50": "> 30 µM"}
{"Molecule": "CC(C)[N+](C)(CCOC(=O)C1c2ccccc2Oc2ccccc21)C(C)C", "AC50": "> 30 µM"}
{"Molecule": "CC(=O)Oc1ccccc1C(=O)Nc1ncc([N+](=O)[O-])s1 [NITAZOXANIDE]", "AC50": "> 30 µM"}
{"Molecule": "CCOc1cc(N)c(Cl)cc1C(=O)NCC1CN(Cc2ccc(F)cc2)CCO1 (stereo not drawn) [MOSAPRIDE]", "AC50": "3.01 µM"}
{"Molecule": "Cc1nnc(SCC2=C(C(=O)O)N3C(=O)[C@@H](NC(=O)Cn4cc(Cl)c(=O)c(Cl)c4)[C@H]3SC2)s1", "AC50": "> 30 µM"}
{"Molecule": "O=C(CCCN1CC=C(n2c(=O)[nH]c3ccccc32)CC1)c1ccc(F)cc1", "AC50": "> 30 µM"}
{"Molecule": "CO/N=C(\\C(=O)N[C@@H]1C(=O)N2C(C(=O)[O-])=C(C[n+]3cccc4c3CCC4)CS[C@H]12)c1csc(N)n1", "AC50": "> 30 µM"}

* * *

AC50 listing for selected molecules.
Target: Alpha-2A adrenergic receptor (Homo sapiens, UniProt P08913)
Sequence (P08913 whole entry): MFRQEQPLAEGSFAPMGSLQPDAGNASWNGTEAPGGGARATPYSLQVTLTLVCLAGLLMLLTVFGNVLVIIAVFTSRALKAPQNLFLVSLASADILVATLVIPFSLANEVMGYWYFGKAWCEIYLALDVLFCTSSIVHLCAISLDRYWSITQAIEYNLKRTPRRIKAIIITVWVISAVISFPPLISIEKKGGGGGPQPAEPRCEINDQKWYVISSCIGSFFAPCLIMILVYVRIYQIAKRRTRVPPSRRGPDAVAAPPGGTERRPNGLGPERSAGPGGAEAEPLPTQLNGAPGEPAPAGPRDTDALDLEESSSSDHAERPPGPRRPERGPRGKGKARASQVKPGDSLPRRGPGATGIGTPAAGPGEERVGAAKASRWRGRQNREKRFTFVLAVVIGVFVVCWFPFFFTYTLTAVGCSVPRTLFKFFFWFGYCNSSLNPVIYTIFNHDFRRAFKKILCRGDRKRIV
Assay type: functional, cell-based

{"Molecule": "CCC(=O)OCC(=O)[C@@]1(OC(=O)CC)[C@@H](C)C[C@H]2[C@@H]3CCC4=CC(=O)C=C[C@]4(C)[C@@]3(F)[C@@H](O)C[C@@]21C [BETAMETHASONE DIPROPIONATE]", "AC50": "> 30 µM"}
{"Molecule": "CO[C@@]1(NC(=O)Cc2cccs2)C(=O)N2C(C(=O)O)=C(COC(N)=O)CS[C@@H]21", "AC50": "> 30 µM"}
{"Molecule": "CCOC(=O)Nc1ccc2c(c1)N(C(=O)CCN1CCOCC1)c1ccccc1S2", "AC50": "> 30 µM"}
{"Molecule": "C[C@H]1Oc2cc(cnc2N)-c2c(nn(C)c2C#N)CN(C)C(=O)c2ccc(F)cc21", "AC50": "> 30 µM"}
{"Molecule": "CC(C)N(CCCCOCC(=O)NS(C)(=O)=O)c1cnc(-c2ccccc2)c(-c2ccccc2)n1", "AC50": "> 30 µM"}
{"Molecule": "NS(=O)(=O)c1cc(C2(O)NC(=O)c3ccccc32)ccc1Cl (stereo not drawn)", "AC50": "> 10 µM"}
{"Molecule": "Clc1ccc2c(c1)C(c1ccccc1)=NCc1nncn1-2", "AC50": "> 10 µM"}
{"Molecule": "CC(=O)OCC[N+](C)(C)C", "AC50": "> 10 µM"}

* * *

target: UniProtKB P08913; type: functional, cell-based

{"Compound": "O=C(O)c1cc(O)c2c3nc4ccccc4oc-3cc(=O)c2n1", "AC50": "> 30 µM"}
{"Compound": "C#C[C@]1(O)CC[C@H]2[C@@H]3CCC4=CC(=O)CCC4=C3C=C[C@@]21CC", "AC50": "> 30 µM"}
{"Compound": "CC1(C)C(/C=C/C=C/C=C/C=C2\\N(CCCCS(=O)(=O)O)c3ccc4ccccc4c3C2(C)C)=[N+](CCCCS(=O)(=O)[O-])c2ccc3ccccc3c21 [INDOCYANINE GREEN ACID FORM]", "AC50": "> 30 µM"}
{"Compound": "N[C@H](Cc1cc(I)c(Oc2cc(I)c(O)c(I)c2)c(I)c1)C(=O)O", "AC50": "> 10 µM"}
{"Compound": "CCC(=O)O[C@@H](O[P@](=O)(CCCCc1ccccc1)CC(=O)N1C[C@H](C2CCCCC2)C[C@H]1C(=O)O)C(C)C", "AC50": "> 30 µM"}
{"Compound": "COc1c(O[C@@H]2O[C@H](CO)[C@@H](O)[C@H](O)[C@H]2O)cc2c(c1OC)-c1ccc(SC)c(=O)cc1[C@@H](NC(C)=O)CC2 [THIOCOLCHICOSIDE]", "AC50": "> 30 µM"}
{"Compound": "CNCCCC1c2ccccc2C=Cc2ccccc21", "AC50": "> 10 µM"}
{"Compound": "COCCCOc1ccnc(C[S+]([O-])c2nc3ccccc3[nH]2)c1C (stereo not given)", "AC50": "> 10 µM"}
{"Compound": "CN(C)c1cc(CNCC(C)(C)C)c(O)c2c1C[C@H]1C[C@H]3[C@H](N(C)C)C(O)=C(C(N)=O)C(=O)[C@@]3(O)C(O)=C1C2=O", "AC50": "> 30 µM"}
{"Compound": "CN1CCN(CCCN2c3ccccc3Sc3ccc(S(=O)(=O)N(C)C)cc32)CC1", "AC50": "> 30 µM"}
{"Compound": "CCCCCCNC(=O)n1cc(F)c(=O)[nH]c1=O", "AC50": "> 30 µM"}
{"Compound": "C=C[C@@]1(C)CC(=O)[C@]2(O)[C@@]3(C)[C@@H](O)CCC(C)(C)[C@@H]3[C@H](OC(=O)CCN(C)C)[C@H](OC(C)=O)[C@@]2(C)O1", "AC50": "> 30 µM"}
{"Compound": "O=C1NC(=O)C(c2ccccc2)(c2ccccc2)N1", "AC50": "> 30 µM"}
{"Compound": "CCCCC[C@H](O)/C=C/[C@H]1[C@H](O)CC(=O)[C@@H]1C/C=C\\CCCC(=O)O", "AC50": "> 30 µM"}
{"Compound": "CC1(C)S[C@@H]2[C@H](NC(=O)[C@H](N)c3ccc(O)cc3)C(=O)N2[C@H]1C(=O)O", "AC50": "> 30 µM"}

* * *

target: Alpha-1A adrenergic receptor (Homo sapiens, UniProt P35348); assay type: functional, cell-based; also: assay procedure not described here
Sequence (P35348 whole entry): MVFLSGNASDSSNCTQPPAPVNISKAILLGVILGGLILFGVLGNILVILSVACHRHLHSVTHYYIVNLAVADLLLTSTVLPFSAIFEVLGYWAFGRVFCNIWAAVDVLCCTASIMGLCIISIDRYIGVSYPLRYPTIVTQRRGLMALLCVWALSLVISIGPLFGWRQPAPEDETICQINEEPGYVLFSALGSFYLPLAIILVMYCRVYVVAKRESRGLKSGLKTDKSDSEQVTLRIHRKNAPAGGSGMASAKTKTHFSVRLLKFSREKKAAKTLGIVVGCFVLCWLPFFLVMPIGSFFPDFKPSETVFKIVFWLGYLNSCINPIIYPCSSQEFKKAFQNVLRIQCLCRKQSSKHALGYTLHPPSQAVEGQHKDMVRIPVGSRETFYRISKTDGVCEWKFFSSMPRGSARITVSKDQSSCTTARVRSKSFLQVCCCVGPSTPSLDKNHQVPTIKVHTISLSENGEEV
Measured Parameter: AC50

{"Molecular String": "COc1nccnc1NS(=O)(=O)c1ccc(N)cc1", "Measured Parameter": "AC50", "Result": "> 30 µM"}
{"Molecular String": "NC(=O)c1nc(F)c[nH]c1=O", "Measured Parameter": "AC50", "Result": "> 30 µM"}
{"Molecular String": "CO[C@H]1[C@@H](O)C[C@H](O[C@H]2[C@@H](O)C[C@H](O[C@H]3[C@@H](O)C[C@H](O[C@H]4CC[C@@]5(C)[C@H](CC[C@@H]6[C@@H]5C[C@@H](O)[C@]5(C)[C@@H](C7=CC(=O)OC7)CC[C@]65O)C4)O[C@@H]3C)O[C@@H]2C)O[C@@H]1C", "Measured Parameter": "AC50", "Result": "> 30 µM"}

* * *

// Adenosine receptor A1 (Homo sapiens) AC50 records

{"Molecule": "CC[C@H]1OC(=O)[C@H](C)[C@@H](O[C@H]2C[C@@](C)(OC)[C@@H](O)[C@H](C)O2)[C@H](C)[C@@H](O[C@@H]2O[C@H](C)C[C@H](N(C)C)[C@H]2O)[C@](C)(OC)C[C@@H](C)C(=O)[C@H](C)[C@@H](O)[C@]1(C)O [CLARITHROMYCIN]", "AC50": "> 30 µM"}
{"Molecule": "C[n+]1ccccc1/C=N/O [PRALIDOXIME]", "AC50": "> 30 µM"}
{"Molecule": "CNC(=O)c1cc(Oc2ccc(NC(=O)Nc3ccc(Cl)c(C(F)(F)F)c3)c(F)c2)ccn1 [REGORAFENIB]", "AC50": "> 30 µM"}
{"Molecule": "Oc1c(I)cc(Cl)c2cccnc12 [CLIOQUINOL]", "AC50": "> 30 µM"}
{"Molecule": "CN(C)c1cc(CNCC(C)(C)C)c(O)c2c1C[C@H]1C[C@H]3[C@H](N(C)C)C(O)=C(C(N)=O)C(=O)[C@@]3(O)C(O)=C1C2=O [OMADACYCLINE]", "AC50": "> 30 µM"}
{"Molecule": "O=C(Nc1nc(-c2cc(Cl)cs2)c(N2CCN(C3CCCCC3)CC2)s1)c1cnc(N2CCC(C(=O)O)CC2)c(Cl)c1 [AVATROMBOPAG]", "AC50": "> 30 µM"}
{"Molecule": "CO[C@@]1(NC(=O)CSCC#N)C(=O)N2C(C(=O)O)=C(CSc3nnnn3C)CS[C@@H]21 [CEFMETAZOLE]", "AC50": "> 30 µM"}
{"Molecule": "CCCCNc1ccc(C(=O)OCCN(C)C)cc1 [TETRACAINE]", "AC50": "> 30 µM"}
{"Molecule": "C=CC[C@]1(O)CC[C@H]2[C@@H]3CCC4=CCCC[C@@H]4[C@H]3CC[C@@]21C [ALLYLESTRENOL]", "AC50": "> 30 µM"}
{"Molecule": "CC1(C)O[C@@H]2[C@@H](CO[C@@]3(COS(N)(=O)=O)OC(C)(C)O[C@@H]23)O1 [TOPIRAMATE]", "AC50": "> 30 µM"}
{"Molecule": "C[C@]1(COc2ccc(N3CCC(Oc4ccc(OC(F)(F)F)cc4)CC3)cc2)Cn2cc([N+](=O)[O-])nc2O1", "AC50": "> 30 µM"}
{"Molecule": "O=C(CCCN1CC=C(n2c(=O)[nH]c3ccccc32)CC1)c1ccc(F)cc1 [DROPERIDOL]", "AC50": "> 30 µM"}
{"Molecule": "O=C(Nc1cccc2c(=O)cc(-c3nnn[nH]3)oc12)c1ccc(OCCCCc2ccccc2)cc1", "AC50": "21.7 µM"}
{"Molecule": "CCCCCCCC(=O)N[C@H](CN1CCCC1)[C@H](O)c1ccc2c(c1)OCCO2", "AC50": "> 30 µM"}
{"Molecule": "Nc1nc(N)nc(Nc2ccc([As]3SCC(CO)S3)cc2)n1 (stereo unspecified) [MELARSOPROL]", "AC50": "> 30 µM"}
{"Molecule": "C[C@@H](O)[C@H]1C(=O)N2C(C(=O)[O-])=C(SC3Cn4cnc[n+]4C3)[C@H](C)[C@H]12 (stereo partly specified) [BIAPENEM]", "AC50": "> 30 µM"}
